Target: cynomolgus LAG-3 ECD/Fc fusion protein (cynomolgus monkey)
Sequence (chain, as listed by the source limits assumed, form in doubt): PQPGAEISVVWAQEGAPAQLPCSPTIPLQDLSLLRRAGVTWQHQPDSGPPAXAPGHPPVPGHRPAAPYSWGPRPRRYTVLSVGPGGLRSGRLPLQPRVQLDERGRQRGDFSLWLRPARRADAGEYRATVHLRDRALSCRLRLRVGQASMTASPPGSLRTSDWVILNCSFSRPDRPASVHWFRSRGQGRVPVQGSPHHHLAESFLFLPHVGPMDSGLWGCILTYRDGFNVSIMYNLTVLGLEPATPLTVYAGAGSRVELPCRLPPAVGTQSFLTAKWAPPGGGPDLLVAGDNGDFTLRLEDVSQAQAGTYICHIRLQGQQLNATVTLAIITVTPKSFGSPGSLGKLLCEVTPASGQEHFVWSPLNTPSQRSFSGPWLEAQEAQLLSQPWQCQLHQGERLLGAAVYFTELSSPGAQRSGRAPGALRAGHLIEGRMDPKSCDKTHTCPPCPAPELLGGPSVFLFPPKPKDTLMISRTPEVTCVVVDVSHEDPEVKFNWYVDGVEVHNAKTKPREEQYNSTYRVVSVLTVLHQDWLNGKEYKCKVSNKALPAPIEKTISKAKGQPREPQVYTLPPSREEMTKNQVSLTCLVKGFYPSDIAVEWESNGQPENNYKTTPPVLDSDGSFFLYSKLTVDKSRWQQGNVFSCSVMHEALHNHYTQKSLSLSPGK
Assay: ELISA, coated cynoLAG-3 ECD/Fc
measurement kind: EC50 (nM)
Give the quantity in nM, number only.

// known answers, use as guide
>  <binder>
mAb749 (antibody, V domains shown) VH: EVQLQQSGAELVRPGASVKVSCTASDFNIKDDYVHWVKQRPEQGLEWIGWIDPENGDTEYASKFQGKATITADTSSNTAYLQLSSLTSEDTAVYFCSTWDAEENYWGQGTTLSVSS VL: DIVLTQAAPSVPVTPGESVSISCRSSKSLLHSNGNTYLYWFLQRPGQSPQVLIYRMSNLASGVPVRFSGSGSGTAFTLRISRVEAEDVGVYYCMQHLEYPFTFGSGTKLEIK

>  <EC50 (nM)>
0.33

$$$$
>  <binder>
mAb742 (antibody, V domains shown) VH: QGQLQQSGAELVRPGASVTLSCKASGYTFNDYEMHWVKQTPVHGLEWIGAIDPETGGTAYNQKFKGKAILTADKSSSTAYMELRSLTSEDSAVYYCIRWGSTVFPYWGQGTLVTVS VL: DGVLTQTPLSLPVNIGDQASISCKSTKSLLNSDGFTYLDWYLQKPGQSPQLLIYLVSNRFSGVPDRFSGSGSGTDFTLKISRVEAEDLGVYYCFQSNYLPWTFGGGTKLEIK

>  <EC50 (nM)>
0.32

$$$$
>  <binder>
mAb744 (antibody, V domains shown) VH: QVQLQQSGAELVRPGTSVTLSCKASGYTFTDYEMHWMKQTPVHGLEWIGAIDPATGGTAYNQKFKGKAILTADKSSSTAYMDFRSLTSEDSAVYYCIRWGTTVFPYWGQGTLVTVS VL: DVVLTQTPLSLPVNIGDQASISCKSTKSLLNSDGFTYLDWYLQKPGQSPQLLIYLVSNRFSGVPDRFSGSGSGTDFTLKISRVEAEDLGVYYCFQSNYLPWTFGGGTKLEIK

>  <EC50 (nM)>
0.21

$$$$

Next item in the queue.
**Q:** Given the entry mAb746 (antibody, V domains shown) VH: EVQLQQSGAELVRPGASVKLSCTASDFNIKDDYMHWVKQRPEQGLDWIGWIVPENGNTEYASKFQGKATITADTSSNTAYLQLSSLTSEDTAVYYCTVYGDYWGQGTTLTVSS VL: DIQMTQSPSSLSASLGERVSLNCRASQEISGYLSWLQQKSDGTIKRLIYAASTLDSGVPKRFSGSRSGSDYSLTISSLESEDFADYYCLQYASYPLTFGAGTKLELK , report its measured EC50.
**A:** 0.21
